Each recorded value in this set is attributed to paper PMC12136037.

experimental_target: ~100 representative kinases (Homo sapiens, UniProt Q99683)
Construct: Recombinant protein kinase domains with a concentration of 2 μM
Sequence (Q99683 whole entry, the tested form may be a part): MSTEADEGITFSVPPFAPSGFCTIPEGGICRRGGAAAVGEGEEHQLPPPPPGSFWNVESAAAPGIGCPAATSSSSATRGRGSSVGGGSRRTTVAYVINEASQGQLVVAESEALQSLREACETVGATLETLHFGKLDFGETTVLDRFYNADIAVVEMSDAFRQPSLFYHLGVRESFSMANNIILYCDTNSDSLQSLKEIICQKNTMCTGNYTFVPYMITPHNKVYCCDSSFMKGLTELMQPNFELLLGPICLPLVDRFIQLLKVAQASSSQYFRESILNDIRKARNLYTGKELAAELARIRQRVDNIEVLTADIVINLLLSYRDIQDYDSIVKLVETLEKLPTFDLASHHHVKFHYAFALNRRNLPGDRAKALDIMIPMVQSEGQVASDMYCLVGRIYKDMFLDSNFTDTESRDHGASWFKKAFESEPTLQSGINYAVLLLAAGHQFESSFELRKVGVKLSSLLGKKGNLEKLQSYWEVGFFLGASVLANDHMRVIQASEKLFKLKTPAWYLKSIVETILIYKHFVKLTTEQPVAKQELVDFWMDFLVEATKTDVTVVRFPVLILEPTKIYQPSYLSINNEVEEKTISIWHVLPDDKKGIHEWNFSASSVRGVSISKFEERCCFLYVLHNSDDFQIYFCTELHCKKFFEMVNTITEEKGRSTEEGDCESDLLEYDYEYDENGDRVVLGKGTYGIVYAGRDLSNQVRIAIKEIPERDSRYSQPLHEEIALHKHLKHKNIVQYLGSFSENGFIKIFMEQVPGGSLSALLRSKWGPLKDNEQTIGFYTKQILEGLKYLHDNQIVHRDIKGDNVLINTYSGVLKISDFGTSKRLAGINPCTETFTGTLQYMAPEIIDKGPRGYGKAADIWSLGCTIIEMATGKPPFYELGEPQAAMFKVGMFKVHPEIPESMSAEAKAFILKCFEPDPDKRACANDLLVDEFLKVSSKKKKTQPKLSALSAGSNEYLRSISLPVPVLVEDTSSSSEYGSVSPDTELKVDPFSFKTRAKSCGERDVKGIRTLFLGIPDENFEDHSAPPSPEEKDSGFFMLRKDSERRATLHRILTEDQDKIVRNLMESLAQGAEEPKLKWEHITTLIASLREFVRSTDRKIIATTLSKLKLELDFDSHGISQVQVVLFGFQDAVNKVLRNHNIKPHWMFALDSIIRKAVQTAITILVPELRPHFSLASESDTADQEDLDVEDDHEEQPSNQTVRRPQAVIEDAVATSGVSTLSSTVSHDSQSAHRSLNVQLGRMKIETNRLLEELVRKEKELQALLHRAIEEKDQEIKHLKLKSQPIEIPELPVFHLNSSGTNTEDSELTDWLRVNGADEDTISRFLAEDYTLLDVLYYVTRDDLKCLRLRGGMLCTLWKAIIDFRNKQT
assay_remarks: DSF 100 kinase selectivity screen;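 note: compound tested at 20 µM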
Format: binding
setup_conditions: protein MAP3K5; average of three replicates
Reported dTm values are given for each entry in this list.

record_smiles | dTm
O=C(Nc1cccc(-c2c[nH]c3ncnc(N4CCOCC4)c23)c1)C1(C(=O)Nc2ccc(F)c(Br)c2)CC1 | 5.22 K
O=C(Nc1ccc(F)cc1)C1(C(=O)Nc2cccc(-c3c[nH]c4ncnc(N5CCOCC5)c34)c2)CC1 | 3.63 K
Cc1cc(NC(=O)C2(C(=O)Nc3ccc(F)cc3)CC2)cc(-c2c[nH]c3ncnc(N4CCOCC4)c23)c1 | 4.24 K
O=C(Nc1cccc(-c2c[nH]c3ncnc(N4CCOCC4)c23)c1)C1(C(=O)Nc2cccc3c2CCC3)CC1 | 3.33 K
O=C(Nc1cccc(-c2c[nH]c3ncnc(N4CCOCC4)c23)c1)C1(C(=O)Nc2ccc(F)cc2F)CC1 | 2.39 K
O=C(Nc1cc(F)cc(Br)c1)C1(C(=O)Nc2cccc(-c3c[nH]c4ncnc(N5CCOCC5)c34)c2)CC1 | 3.40 K
Cn1cc(-c2c[nH]c3ncnc(N4CCOCC4)c23)cc1C#N | 15.45 K
